Recorded values, source ChEMBL document CHEMBL1201862.

Biological target: Adenosylmethionine-8-amino-7-oxononanoate aminotransferase (Mycobacterium tuberculosis, UniProt P9WQ81)
Sequence (P9WQ81 whole entry): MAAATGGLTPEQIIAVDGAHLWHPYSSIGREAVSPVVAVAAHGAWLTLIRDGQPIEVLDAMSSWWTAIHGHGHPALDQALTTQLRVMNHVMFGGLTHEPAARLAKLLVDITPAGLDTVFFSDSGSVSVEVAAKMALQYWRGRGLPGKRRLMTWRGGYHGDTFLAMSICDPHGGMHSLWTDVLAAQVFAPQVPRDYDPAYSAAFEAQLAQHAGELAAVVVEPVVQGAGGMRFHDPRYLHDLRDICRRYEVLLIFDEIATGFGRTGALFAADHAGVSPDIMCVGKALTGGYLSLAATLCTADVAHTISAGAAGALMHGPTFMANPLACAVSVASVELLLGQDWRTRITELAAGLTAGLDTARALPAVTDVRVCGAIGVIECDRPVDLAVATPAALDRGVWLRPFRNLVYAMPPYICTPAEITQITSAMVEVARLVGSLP
Assay: Mycobacterium tuberculosis BioA enzyme inhibitor Measured in Biochemical System Using Plate Reader - 2163-02_Inhibitor_Dose_CherryPick_Activity.
Type: functional, Mycobacterium tuberculosis UT205
Active and inactive are the calls of the source. The rule behind the calls is not given here.
So I've got a bunch of molecules here, and I need their AC50 values.

Check out these entries, answers already filled in.
# molecule `CCOCCCNC(=O)CSc1nc2nc(C)c(Cc3ccccc3)c(C)n2n1` ; its AC50 = 2180 nM (active)

# molecule `Nn1c(SCCOc2ccccc2)nnc1-c1cccnc1` ; its AC50 = 1330 nM (active)

# molecule `CCC(=O)N1CC[C@@H]2[C@@H](CO)N(C)c3ccc(-c4cccc(F)c4)cc3[C@@H]21` ; its AC50 = 184 nM (active)

# molecule `Cc1cc(NC(=O)CN(C)S(=O)(=O)c2c[nH]cn2)ccc1Br` ; its AC50 = 19000 nM (active)

Could you now consider this next molecule?
# molecule `O=C(O)CCS(=O)(=O)c1nc(-c2cccs2)cc(C(F)(F)F)n1` ; its AC50 = 15600 nM (active)
